These measurements were taken from patent US7692030B2.

- System: SR
- ASSAY_EXPLANATION: NCI DTP human tumor cell line screen (SRB)
- Format: cell-based
- PARTICULARS: Leukemia, 10 μM, 48 h
Measured Growth Percent accompanies every entry in the list below.
MEASURE_NAME: Growth Percent

• CC1CCC2C(C)C(OCc3ccc(C(=O)NN=Cc4ccccc4O)cc3)OC3OC4(C)CCC1C32OO4 (stereo not shown) [ART-Phe-Sal] = −44.93%
• CC1CCC2C(C)C(OCc3ccc(C(=O)NN=Cc4ccccc4O)nc3)OC3OC4(C)CCC1C32OO4 (stereo not shown) [ART-Pyr-Sal] = −30.14%
• CC1CCC2C(C)C(OCCn3cc(C(=O)NN=Cc4ccccc4O)nn3)OC3OC4(C)CCC1C32OO4 (stereo not shown) [ART-Triazole-Sal] = 0.08%
• CC1CCC2C(C)C(OCc3ccc(C(=O)NN=Cc4ccccc4O)o3)OC3OC4(C)CCC1C32OO4 (stereo not shown) [ART-Furan-Sal] = −29.47%
